run description: Anticancer activity against human KATO III cells by MTT assay
Format: functional, cell-based, KATO III cell
pIC50: −log10 of the molar value.
Catalogue of pIC50 readings, one per entry.
measured metric: pIC50

[[record]]
compound = "NC(=O)N1CCCc2cc(S(=O)(=O)N3CC(c4ccccc4)NC3=O)ccc21 (configuration not stated)"
measured_metric = "pIC50"
result_value = 5.45

[[record]]
compound = "COC(=O)N1CCCc2cc(S(=O)(=O)N3CC(c4ccccc4)NC3=O)ccc21 (configuration not stated)"
measured_metric = "pIC50"
result_value = 4.78

[[record]]
compound = "C=CCOC(=O)N1CCCc2cc(S(=O)(=O)N3CC(c4ccccc4)NC3=O)ccc21 (configuration not stated)"
measured_metric = "pIC50"
result_value = 5.30

[[record]]
compound = "O=C(NC1CCCCC1)N1CCCc2cc(S(=O)(=O)N3CC(c4ccccc4)NC3=O)ccc21 (configuration not stated)"
measured_metric = "pIC50"
result_value = 5.05

[[record]]
compound = "CCCCOC(=O)N1CCCc2cc(S(=O)(=O)N3CC(c4ccccc4)NC3=O)ccc21 (configuration not stated)"
measured_metric = "pIC50"
result_value = 5.40

[[record]]
compound = "CCCOC(=O)N1CCCc2cc(S(=O)(=O)N3CC(c4ccccc4)NC3=O)ccc21 (configuration not stated)"
measured_metric = "pIC50"
result_value = 5.48

[[record]]
compound = "O=C(CCl)N1CCCc2cc(S(=O)(=O)N3CC(c4ccccc4)NC3=O)ccc21 (configuration not stated)"
measured_metric = "pIC50"
result_value = 5.46

[[record]]
compound = "COc1cccc2c1C(=O)c1c(O)c3c(c(O)c1C2=O)C[C@@](O)(C(=O)CO)C[C@@H]3O[C@H]1C[C@H](N)[C@H](O)[C@H](C)O1"
measured_metric = "pIC50"
result_value = 5.36

[[record]]
compound = "O=C(CCl)NC(=O)N1CCCc2cc(S(=O)(=O)N3CC(c4ccccc4)NC3=O)ccc21 (configuration not stated)"
measured_metric = "pIC50"
result_value = 5.60

[[record]]
compound = "O=C(OCCCl)N1CCCc2cc(S(=O)(=O)N3CC(c4ccccc4)NC3=O)ccc21 (configuration not stated)"
measured_metric = "pIC50"
result_value = 5.06

[[record]]
compound = "CC(C)COC(=O)N1CCCc2cc(S(=O)(=O)N3CC(c4ccccc4)NC3=O)ccc21 (configuration not stated)"
measured_metric = "pIC50"
result_value = 5.56

[[record]]
compound = "O=C(Nc1ccc(Cl)cc1)NS(=O)(=O)c1ccc2c(c1)CCC2"
measured_metric = "pIC50"
result_value = 4.50

